# Minus NSB* per entry
- tested-target: mu opiate receptor (Rattus norvegicus)
- Construct: from tissue; host or cells: rat brain membranes/homogenate
- Sequence (P33535 whole entry): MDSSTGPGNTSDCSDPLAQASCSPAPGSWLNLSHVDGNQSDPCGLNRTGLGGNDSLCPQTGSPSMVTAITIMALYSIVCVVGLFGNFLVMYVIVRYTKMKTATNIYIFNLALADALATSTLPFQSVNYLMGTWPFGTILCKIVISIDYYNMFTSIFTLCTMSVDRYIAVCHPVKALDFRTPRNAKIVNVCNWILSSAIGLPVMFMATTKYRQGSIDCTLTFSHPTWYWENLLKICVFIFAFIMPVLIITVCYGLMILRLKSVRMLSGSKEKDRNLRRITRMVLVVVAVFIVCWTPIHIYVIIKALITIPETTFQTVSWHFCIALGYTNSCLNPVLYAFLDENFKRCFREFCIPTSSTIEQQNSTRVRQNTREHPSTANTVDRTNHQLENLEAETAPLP
- experiment-notes: Inhibition of [3H]DAMGO binding to the mu opiate receptor in rat brain homogenates
- protocol-conditions: mean minus non-specific binding; 0.08 mg of compound per milliliter, 7 nM 3H-labeled DAMGO, rat brain membranes

{"columns": ["compound", "Minus NSB*"],
 "data": [
  ["CC(C)c1nc(C2CCCC2)n2c1NC(=O)C2C(C)C (stereo not drawn) [Pool 145]", 678.90],
  ["CCC(C)c1nc(C)n2c1NC(=O)C2C(C)C (stereo not drawn) [Pool 38]", 379.75],
  ["CC(C)c1nc(CC(C)(C)C)n2c1NC(=O)C2C(C)C (stereo not drawn) [Pool 136]", 683.00]
]}
